study_system: Prostaglandin G/H synthase 2 (Homo sapiens)
Sequence (P35354 whole entry): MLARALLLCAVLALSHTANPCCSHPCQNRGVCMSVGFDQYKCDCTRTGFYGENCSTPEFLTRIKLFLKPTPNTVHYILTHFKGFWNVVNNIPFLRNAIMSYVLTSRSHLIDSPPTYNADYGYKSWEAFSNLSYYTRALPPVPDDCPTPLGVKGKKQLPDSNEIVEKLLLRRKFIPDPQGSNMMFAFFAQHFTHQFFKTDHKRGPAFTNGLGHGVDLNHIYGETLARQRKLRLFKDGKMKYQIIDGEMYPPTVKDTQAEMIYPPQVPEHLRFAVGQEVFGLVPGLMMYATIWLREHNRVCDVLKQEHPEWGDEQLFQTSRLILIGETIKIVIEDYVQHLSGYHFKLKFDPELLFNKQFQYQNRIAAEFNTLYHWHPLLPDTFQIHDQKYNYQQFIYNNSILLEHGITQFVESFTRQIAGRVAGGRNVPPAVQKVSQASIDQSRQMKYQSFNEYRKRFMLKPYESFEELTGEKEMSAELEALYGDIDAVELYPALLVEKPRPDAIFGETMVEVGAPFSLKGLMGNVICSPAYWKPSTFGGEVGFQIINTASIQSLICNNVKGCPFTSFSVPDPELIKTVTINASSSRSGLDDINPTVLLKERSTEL
assay_summary: Inhibition of human COX2 in human whole blood by ELISA
experimental_readout: Ki

Task: Value lookup for Ki; key = `CCc1cccc(NC(=O)Nc2cccn(Cc3ccccc3Cl)c2=O)c1`
Output: > 100 µM

###

Overview of recorded log10 of Ki for various compounds
study_system: Prostaglandin E2 receptor EP3 subtype (Homo sapiens, UniProt P43115)
Sequence (P43115 whole entry): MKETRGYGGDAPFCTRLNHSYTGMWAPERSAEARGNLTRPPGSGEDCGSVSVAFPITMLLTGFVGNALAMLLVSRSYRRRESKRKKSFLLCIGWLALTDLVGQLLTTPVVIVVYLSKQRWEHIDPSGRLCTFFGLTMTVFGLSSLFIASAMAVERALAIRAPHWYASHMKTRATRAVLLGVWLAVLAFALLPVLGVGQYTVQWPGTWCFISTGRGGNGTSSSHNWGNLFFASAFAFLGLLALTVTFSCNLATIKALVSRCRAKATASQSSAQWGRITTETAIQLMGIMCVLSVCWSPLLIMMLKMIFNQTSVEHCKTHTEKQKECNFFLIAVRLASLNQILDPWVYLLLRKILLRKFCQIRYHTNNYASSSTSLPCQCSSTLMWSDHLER
assay_summary: Antagonist activity at human EP3 receptor expressed in human U2OS cells assessed as inhibition of PGE2-induced intracellular calcium mobilization by FLIPR assay
Lab note - Ki converted to log10 from values in µM.

Answered cases to consult:
| chem_smiles | study_system | endpoint_value |
| --- | --- | --- |
| COc1cccc(NC(=O)Nc2cc(C)cn(Cc3ccccc3Cl)c2=O)c1 | Prostaglandin E2 receptor EP3 subtype (Homo sapiens, UniProt P43115) | 0.10 |
| COc1cccc(NC(=O)Nc2cccn(Cc3ccc(Cl)cc3)c2=O)c1 | Prostaglandin E2 receptor EP3 subtype (Homo sapiens, UniProt P43115) | 0.00 |
| CC(C)c1cccc(NC(=O)Nc2cccn(Cc3ccccc3Cl)c2=O)c1 | Prostaglandin E2 receptor EP3 subtype (Homo sapiens, UniProt P43115) | -1.20 |
| COc1cccc(NC(=O)Nc2ccc(C)n(Cc3ccccc3Cl)c2=O)c1 | Prostaglandin E2 receptor EP3 subtype (Homo sapiens, UniProt P43115) | 0.10 |
| COc1cccc(NC(=O)Nc2cccn(Cc3ccc(C)cc3)c2=O)c1 | Prostaglandin E2 receptor EP3 subtype (Homo sapiens, UniProt P43115) | 0.50 |
| COc1cccc(NC(=O)Nc2cccn(Cc3c(F)cccc3Cl)c2=O)c1 | Prostaglandin E2 receptor EP3 subtype (Homo sapiens, UniProt P43115) | -1.60 |

// next item, log10 of Ki requested
Task: Value lookup for log10 of Ki; key = `Cc1ccc(NC(=O)Nc2cccn(Cc3ccccc3Cl)c2=O)cc1`
Output: 0.50
